For reference, the following pIC50 results for UniProt:P20292 were taken from various sources.
Sequence (P20292 whole entry): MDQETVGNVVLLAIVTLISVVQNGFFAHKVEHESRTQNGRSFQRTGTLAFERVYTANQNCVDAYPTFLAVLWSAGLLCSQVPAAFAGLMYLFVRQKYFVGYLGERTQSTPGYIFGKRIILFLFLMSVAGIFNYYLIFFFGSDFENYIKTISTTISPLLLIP
One number for each entry, as −log10 of the molar value.

Molecule	pIC50
CN1CCN(c2cnc(-c3nc(C4(c5ccc(-c6cnc(N)nc6)nc5)CCC4)no3)cn2)CC1	8.74

Below is a list of molecules. For each, state its recorded pIC50.
1. Cc1cnc(-c2ccc(Cn3c(CC(C)(C)C(=O)O)c(SC(C)(C)C)c4cc(OCc5ccccn5)ccc43)cc2)s1
2. CC(C)(C)Sc1c(CC(C)(C)C(=O)O)n(Cc2ccc(Cl)cc2)c2ccc(OCc3ccc4ccccc4n3)cc12
3. COc1ccc(COc2ccc3c4c2CC(C)Sc4c(CC(C)(C)C(=O)O)n3Cc2ccc(Cl)cc2)nc1 (stereo not drawn)
4. COC(=O)COc1ccc(OCc2ccc3ccccc3n2)c(C2(c3ccccc3)CC3CCC2C3)c1 (stereo not drawn)
5. c1ccc2nc(COc3ccc(C4(c5ccc(OCc6ccc7ccccc7n6)cc5)CC5CCC4C5)cc3)ccc2c1 (stereo not drawn)
6. COc1ccc(-c2ccc(Cn3c(CC(C)(C)C(=O)O)c(SC(C)(C)C)c4cc(OCc5ccccn5)ccc43)cc2)nc1
7. CC(C)(Cc1c(CC2CCC2)c2cc(OCc3ccccn3)ccc2n1Cc1ccc(-c2nccs2)cc1)C(=O)O

1: 8.32; 2: 8.80; 3: 7.40; 4: 7.03; 5: 6.90; 6: 8.17; 7: 8.18
